Below is a list of entries, each paired with its recorded selective drug sensitivity score value.
- System: TMD5
- test: selective drug sensitivity score (sDSS, relative to normal bone marrow) (sDSS (score)); higher = more potent and effective on the cell line relative to normal bone marrow cells;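 also: ALL cell lines in 384-well plates, five doses spanning 10,000-fold, each plate scaled between vehicle and 100 µmol/L benzalkonium chloride controls, sDSS an adapted area-under-curve metric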
- conditions: 72 h
Write the number on its own, no unit after it.

compound	selective drug sensitivity score
CC(C)Oc1ccc(C(=O)N[C@H](CNC(=O)CN(C)C)Cc2ccc(-c3cn4cccc([C@H](C)O)c4n3)cc2)cc1Cl (top concentration 10000 nM)	5.18
O=C(O)CNC(=O)c1c(O)c2ccccc2n(Cc2ccccc2)c1=O [IOX-2] (top concentration 50000 nM)	-0.82

Form: compound = CC(C)(C#N)c1cc(Cn2cncn2)cc(C(C)(C)C#N)c1 [Anastrozole] (top concentration 10000 nM) ; selective drug sensitivity score = 0.6

Form: compound = Cn1cnc2c(F)c(Nc3ccc(Br)cc3F)c(C(=O)NOCCO)cc21 [Binimetinib] (top concentration 1000 nM) ; selective drug sensitivity score = 2.38

Form: compound = Cc1noc2c1-c1ccccc1C(c1ccc(Cl)cc1)=N[C@H]2CC(N)=O [CPI-0610] (top concentration 10000 nM) ; selective drug sensitivity score = 0

Form: compound = CO[C@H]1C[C@@H]2CC[C@@H](C)[C@@](O)(O2)C(=O)C(=O)N2CCCC[C@H]2C(=O)O[C@H]([C@H](C)C[C@@H]2CC[C@@H](OC(=O)C(C)(CO)CO)[C@H](OC)C2)CC(=O)[C@H](C)/C=C(\C)[C@@H](O)[C@@H](OC)C(=O)[C@H](C)C[C@H](C)/C=C/C=C/C=C/1C [Temsirolimus] (top concentration 100 nM) ; selective drug sensitivity score = -5.04

Form: compound = Cn1nnc2c(C(N)=O)ncn2c1=O [Temozolomide] (top concentration 100000 nM) ; selective drug sensitivity score = -0.04

Form: compound = CC(C)(O)CC(=O)NCCn1ccc2ncnc(Nc3ccc(Oc4cccc(C(F)(F)F)c4)c(Cl)c3)c21 [TAK-285] (top concentration 2500 nM) ; selective drug sensitivity score = 3.1

Form: compound = COc1cccc(-c2ccc(NC(=O)C3=C(C(=O)O)CCC3)c(F)c2)c1 [Vidofludimus] (top concentration 10000 nM) ; selective drug sensitivity score = 0

----------
- System: KARPAS-45
- test: selective drug sensitivity score (sDSS, relative to normal bone marrow) (sDSS (score)); higher = more potent and effective on the cell line relative to normal bone marrow cells
- conditions: 72 h
Below is a list of entries, each paired with its recorded selective drug sensitivity score value.
Write the number on its own, no unit after it.

Some solved cases for reference:
> print(dat)
                                   compound                          quantity  data.value
1  COc1cc(Br)c(Nc2nc(-c3c(C)nc4ncccn34)cs2)c(Br)c1 [PTC-209] (top concentration 10000 nM)  selective drug sensitivity score        0.02
2  C=C(c1ccc(C(=O)O)cc1)c1cc2c(cc1C)C(C)(C)CCC2(C)C [Bexarotene] (top concentration 10000 nM)  selective drug sensitivity score        -1.8

Could you now consider this next compound?
Form: compound = CNC(=O)c1ccc(-c2cnc3ncc(Cc4ccc5ncccc5c4)n3n2)cc1F [Capmatinib] (top concentration 1000 nM) ; selective drug sensitivity score = -0.06

----------
- System: COG-LL-332h
- test: selective drug sensitivity score (sDSS, relative to normal bone marrow) (sDSS (score)); higher = more potent and effective on the cell line relative to normal bone marrow cells
- conditions: 72 h
quantity: selective drug sensitivity score

Some solved cases for reference:
compound	selective drug sensitivity score
CC[C@H](Nc1ncnc2[nH]cnc12)c1nc2cccc(F)c2c(=O)n1-c1ccccc1 [Idelalisib] (top concentration 10000 nM)	0.04
Cc1noc2c1-c1ccccc1C(c1ccc(Cl)cc1)=N[C@H]2CC(N)=O [CPI-0610] (top concentration 10000 nM)	-2.8
Nc1ncnc2c1nc(Cl)n2[C@@H]1O[C@H](CO)[C@@H](O)[C@H]1O [8-chloro-adenosine] (top concentration 50000 nM)	0.9
Cn1cncc1[C@@](N)(c1ccc(Cl)cc1)c1ccc2c(c1)c(-c1cccc(Cl)c1)cc(=O)n2C [Tipifarnib] (top concentration 10000 nM)	9.3

Could you now consider this next compound?
Entry CO[C@H]1C[C@@H]2CC[C@@H](C)[C@@](O)(O2)C(=O)C(=O)N2CCCC[C@H]2C(=O)O[C@H]([C@H](C)C[C@@H]2CC[C@@H](OP(C)(C)=O)[C@H](OC)C2)CC(=O)[C@H](C)/C=C(\C)[C@@H](O)[C@@H](OC)C(=O)[C@H](C)C[C@H](C)/C=C/C=C/C=C/1C [Ridaforolimus] (top concentration 100 nM) ; assay system COG-LL-332h; selective drug sensitivity score recorded at 7.36
